All figures here come from patent US10123993B2.

pIC50: −log10 of the molar value.
Observed pIC50, system ROCK2 (Homo sapiens, UniProt O75116).

Query string: Give a short answer stating reported pIC50 for COc1cc(F)ccc1Cn1ccn(-c2ccc(-c3cn[nH]c3)c(OC)n2)c1=O [Example 383] .
Result string: 6.70 to 7.70

Query string: Give me measured pIC50, please, for this compound: CCOc1cccc(C(C)n2ccn(-c3ccc(-c4cn[nH]c4)cc3)c2=O)c1 (single isomer, unassigned) [Example 369]
Result string: 7.70 to 8.68

Query string: # return recorded pIC50 for entry O=C1N(Cc2cccc(F)c2)CC(CO)N1c1ccc(-c2cn[nH]c2)cc1 (stereo not shown) [Example 39]
Result string: 7.70 to 8.68

Query string: For COc1ccccc1CCn1ccn(-c2ccc(-c3cn[nH]c3)cc2)c1=O [Example 66] , write its pIC50.
Result string: 5.70 to 6.70

Query string: Provide only the value of recorded pIC50 for COc1cccc(CN2C(=O)N(c3ccc(-c4cn[nH]c4)cc3)C[C@@H]2CO)c1 [Example 125]
Result string: > 8.70

Query string: // fetch pIC50 given entry COc1nc(N2CCN(Cc3cccc(F)c3C)C2=O)ccc1-c1cn[nH]c1 [Example 248]
Result string: > 8.70

Query string: Supply recorded pIC50 for CNc1nc(N2CCN(Cc3cccc(OCC4CC4)c3)C2=O)ccc1-c1cn[nH]c1 [Example 201] here.
Result string: 5.70 to 6.70

Query string: Recall and state the measured pIC50 for COc1cc(N2CC(=O)N(Cc3ccccc3Cl)C2=O)ccc1-c1cn[nH]c1 [Example 104] .
Result string: 6.70 to 7.70

Query string: Could you please provide reported pIC50 for COc1cccc(Cn2ccn(-c3ccc(-c4ccnc5[nH]ccc45)cc3)c2=O)c1 [Example 322] ? Thanks!
Result string: 7.70 to 8.68

Query string: Identify measured pIC50 associated with COc1cccc(C(C)(CO)N2CCN(c3ccc(-c4cn[nH]c4)cc3)C2=O)c1 (single isomer, unassigned) [Example 287]
Result string: 6.70 to 7.70

###

The following are reported IC50 results, target or system ROCK2 (Homo sapiens, UniProt O75116).

Query string: Dear colleague, please send me the reported IC50 for COc1cc(CN2CCN(c3ccc(-c4cn[nH]c4)cn3)C2=O)ccc1F when you can.
Result string: 2.1 to 20 nM

Query string: For COc1cccc(CN2CCN(c3cc(F)c(-c4cn[nH]c4)cc3F)C2=O)c1 , write its IC50.
Result string: 20.1 to 200 nM

Query string: Determine its reported IC50: COc1cc(CN2C(=O)N(c3ccc(-c4cn[nH]c4)cc3)C[C@H]2CO)ccc1F (single isomer, unassigned)
Result string: 2.1 to 20 nM

Query string: Fill in reported IC50 for this entry: COc1cccc(C(C)N2C(=O)N(c3ccc(-c4cn[nH]c4)cc3)CC2(C)C)c1 (single isomer, unassigned)
Result string: 20.1 to 200 nM

Query string: Quickly give me recorded IC50 for CCOc1cccc(C(C)n2ccn(-c3ccc(-c4cn[nH]c4)c(CC)n3)c2=O)c1 (single isomer, unassigned)
Result string: 20.1 to 200 nM

Query string: Supply IC50 value. Item: CC(c1ccccc1)N1C(=O)CN(c2ccc(-c3cn[nH]c3)cc2)C1=O (centres unmarked)
Result string: 200 to 2000 nM

Query string: Annotate the molecule COc1cccc(CN2C(=O)CN(c3ccc(-c4cn[nH]c4)c(OC)c3)C2=O)c1 with its measured IC50.
Result string: 2.1 to 20 nM

Query string: Specify measured IC50 for COc1cc(Cn2ccn(-c3ccc(-c4cn[nH]c4)cc3)c2=O)ccc1F .
Result string: 20.1 to 200 nM

Query string: Quickly give me recorded IC50 for CCNC(=O)C(c1cccc(OC)c1)N1CCN(c2ccc(-c3cn[nH]c3)cc2)C1=O (single isomer, unassigned)
Result string: 20.1 to 200 nM

Query string: Please supply the value of reported IC50 for the item COc1cccc(C(C)(CO)N2CCN(c3ccc(-c4cn[nH]c4)cc3)C2=O)c1 (single isomer, unassigned) [Example 286]
Result string: 20.1 to 200 nM

Query string: Answer with reported IC50 of COc1ccc(F)c(CN2CCN(c3ccc(-c4cn[nH]c4)c(F)c3)C2=O)c1
Result string: 2.1 to 20 nM

Query string: Output IC50 of COc1nc(N2CCN(Cc3cc(F)cc(OCC4CC4)c3)C2=O)ccc1-c1cn[nH]c1
Result string: 2.1 to 20 nM

Query string: Consider the molecule COc1cc(C(C)N2CCN(c3ccc(-c4cn[nH]c4)c(OC)n3)C2=O)ccc1F (single isomer, unassigned) [Example 231] and give its recorded IC50.
Result string: 20.1 to 200 nM

Query string: Provide measured IC50 value, entry: COc1cccc(CN2CCN(c3ccc(-c4ccncc4F)cc3)C2=O)c1
Result string: 20.1 to 200 nM

Query string: Give the reported IC50 for this molecule. CCc1nc(-n2ccn(C(C)c3cc(F)cc(OC)c3)c2=O)ccc1-c1cn[nH]c1 (single isomer, unassigned)
Result string: 200 to 2000 nM

Query string: Using the record for COc1cccc(C(C)n2ccn(-c3ccc(-c4ccnc5[nH]ccc45)cc3)c2=O)c1 (single isomer, unassigned) [Example 326] , state its measured IC50.
Result string: 2.1 to 20 nM

Query string: // Input: COc1cccc(C(C(=O)NCC(C)(C)O)N2CCN(c3ccc(-c4cn[nH]c4)cc3)C2=O)c1 (single isomer, unassigned) . Output its IC50 only.
Result string: 20.1 to 200 nM

###

I'd be grateful if you could share measured IC50 for these entries.

Query string: Fill in: IC50 on UniProt:O75116, entry CCc1cc(-n2ccn(Cc3cccc(OCC4CC4)c3)c2=O)ccc1-c1cn[nH]c1 [Example 455]
Result string: 200 to 2000 nM

Query string: Give IC50 only, for COc1cccc(C(CO)N2CCN(c3ccc(-c4cn[nH]c4)cn3)C2=O)c1 (single isomer, unassigned) [Example 461] , using UniProt:O75116 data.
Result string: < 2 nM

Query string: State the measured IC50 (UniProt:O75116) of COc1cc(CN2C(=O)N(c3ccc(-c4cn[nH]c4)cn3)C[C@H]2CO)ccc1F [Example 311]
Result string: 20.1 to 200 nM

Query string: Enter measured IC50, system UniProt:O75116, for the molecule shown: COc1ccc(F)c(Cn2ccn(-c3ccc(-c4cn[nH]c4)cc3)c2=O)c1 [Example 338]
Result string: 20.1 to 200 nM

Query string: Using UniProt:O75116 as the test system, report measured IC50 of COc1cc(F)cc(C(C)N2CCN(c3ccc(-c4cn[nH]c4)c(C)n3)C2=O)c1 (single isomer, unassigned) [Example 206] .
Result string: < 2 nM

Query string: Provide measured IC50 on UniProt:O75116 for COc1cccc(CN2CCN(c3ccc(-c4cn[nH]c4)nc3)C2=O)c1 [Example 439] please.
Result string: 2.1 to 20 nM

Query string: Print UniProt:O75116 IC50 for COc1cc(F)cc(CN2CCN(c3ccc(-c4cn[nH]c4)cn3)C2=O)c1 [Example 428] .
Result string: 2.1 to 20 nM

Query string: Print UniProt:O75116 IC50 for COc1nc(N2CCN(Cc3cccc(F)c3F)C2=O)ccc1-c1cn[nH]c1 [Example 223] .
Result string: 2.1 to 20 nM

Query string: Enter measured IC50, system UniProt:O75116, for the molecule shown: CCc1cc(-n2ccn(Cc3cccc(OC)c3)c2=O)ccc1-c1cn[nH]c1 [Example 453]
Result string: 20.1 to 200 nM
